Record form. Attribute: x-fold Koff improvement. Fill in for each entry.
biological target: human NKp30 (human) (UniProt O14931); experiment: BLI, ratio to ΔB7-H6_wt
Sequence (O14931 19-135 limits assumed): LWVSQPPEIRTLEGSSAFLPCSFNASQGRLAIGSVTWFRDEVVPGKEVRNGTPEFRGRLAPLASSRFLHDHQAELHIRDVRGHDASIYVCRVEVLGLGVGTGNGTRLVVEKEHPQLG
Only the number, expressed in fold, is required.

I would be grateful if you could share the reported x-fold Koff improvement for ΔB7-H6_S3#23-SEED-PGLALA (bispecific antibody, part only; not given: SEED Fc chains and hu225 Fab, part only) chain, part: DLKVEMMAGGTQITPLNDNVTIFCNIFYSQPLNITEMGITWFWKSLTFDKEVKVFEFYGDHQEAFRPGAIVSPWRLKSGDASLRLPGIQLEEAGEYRCEVVVTPYKAQGTVQLEVVASPAS .
3.2

How about this binder: ΔB7-H6_S3#29-SEED-PGLALA (bispecific antibody, part only; not given: SEED Fc chains and hu225 EGFR Fab, part only) chain, part: DLKVEMMAGGTQITPLNDNVTIFCNIFYSQPLNITVMGITWFWKSLTFDKEVKVFEFWGDHQEAFRPGAIVSPWRLKSGDASLRLPGIQLEEAGEYRCEVIVTPYKAQGTVQLEVVASPAS
9.6

How about this binder: ΔB7-H6_S3#28-SEED-PGLALA (bispecific antibody, part only; not given: SEED Fc chains and hu225 EGFR Fab, part only) chain, part: DLKVEMMAGGTQITPLNDNVTIFCNIFYSQPLNITHMGITWFWKSLTFDKEVKVFEFWGDHQEAFRPGAIVSPWRLKSGDASLRLPGIQLEEAGEYRCEVVVTPLKAQGTVQLEVVASPAS
1.2

How about this binder: ΔB7-H6_S3#1-SEED-PGLALA (bispecific antibody, part only; not given: SEED Fc chains and hu225 EGFR Fab, part only) chain, part: DLKVEMMAGGTQITPLNDNVTIFCNIFYSQPLNITTMGITWFWKSLTFDKEVKVFEFWGDHQEAFRPGAIVSPWRLKSGDASLRLPGIQLEEAGEYRCEVVVTPYKAQGTVQLEVVASPAS
5.7
